Biological target: PKA-IIβ (Homo sapiens)
Construct: made in house
Sequence (P31323 whole entry): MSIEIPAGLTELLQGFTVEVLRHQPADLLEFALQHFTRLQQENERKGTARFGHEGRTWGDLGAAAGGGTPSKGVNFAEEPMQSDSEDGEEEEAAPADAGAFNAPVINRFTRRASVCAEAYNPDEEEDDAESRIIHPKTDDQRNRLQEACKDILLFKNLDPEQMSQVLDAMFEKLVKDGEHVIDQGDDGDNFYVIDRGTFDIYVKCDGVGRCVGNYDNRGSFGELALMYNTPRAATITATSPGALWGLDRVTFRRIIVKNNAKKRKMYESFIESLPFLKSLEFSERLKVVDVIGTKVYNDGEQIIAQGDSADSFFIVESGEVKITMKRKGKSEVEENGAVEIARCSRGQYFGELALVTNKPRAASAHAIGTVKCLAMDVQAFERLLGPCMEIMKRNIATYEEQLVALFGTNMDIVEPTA
Assay: PKA activity assay, PKA-IIβ
Type: biochemical
Details: PKAIIβ; concentration 1 μM
ATTRIBUTE_MEASURED: A (PKA activity) (U/mg)
Unit U/mg implied. Number only.

# input // fetch PKA-IIβ (Homo sapiens) A (PKA activity) for Nc1ncnc2c1ncn2[C@@H]1O[C@@H]2COP(=O)(O)O[C@H]2[C@H]1O [cAMP, reference compound]
# output 2.14E+01

# input // fetch PKA-IIβ (Homo sapiens) A (PKA activity) for Nc1ncnc2c1nc(SCc1ccccc1)n2[C@@H]1O[C@@H]2CO[P@](O)(=S)O[C@H]2[C@H]1O
# output 1.92E+01

# input // fetch PKA-IIβ (Homo sapiens) A (PKA activity) for Cc1ccc(CSc2nc3c(N)ncnc3n2[C@@H]2O[C@@H]3CO[P@](O)(=S)O[C@H]3[C@H]2O)cc1
# output 2.854

# input // fetch PKA-IIβ (Homo sapiens) A (PKA activity) for COC1C2OP(=O)(O)OCC2OC1n1c(Sc2ccc(Cl)cc2)nc2c(N)ncnc21 [D-007, 8-pCPT-2′-O-Me-cAMP, reference compound]
# output 6.99

###

Molecular target: Epac2^fl (Mus musculus, UniProt Q9EQZ6)
Sequence (Q9EQZ6 1-993 isoform Q9EQZ6-3): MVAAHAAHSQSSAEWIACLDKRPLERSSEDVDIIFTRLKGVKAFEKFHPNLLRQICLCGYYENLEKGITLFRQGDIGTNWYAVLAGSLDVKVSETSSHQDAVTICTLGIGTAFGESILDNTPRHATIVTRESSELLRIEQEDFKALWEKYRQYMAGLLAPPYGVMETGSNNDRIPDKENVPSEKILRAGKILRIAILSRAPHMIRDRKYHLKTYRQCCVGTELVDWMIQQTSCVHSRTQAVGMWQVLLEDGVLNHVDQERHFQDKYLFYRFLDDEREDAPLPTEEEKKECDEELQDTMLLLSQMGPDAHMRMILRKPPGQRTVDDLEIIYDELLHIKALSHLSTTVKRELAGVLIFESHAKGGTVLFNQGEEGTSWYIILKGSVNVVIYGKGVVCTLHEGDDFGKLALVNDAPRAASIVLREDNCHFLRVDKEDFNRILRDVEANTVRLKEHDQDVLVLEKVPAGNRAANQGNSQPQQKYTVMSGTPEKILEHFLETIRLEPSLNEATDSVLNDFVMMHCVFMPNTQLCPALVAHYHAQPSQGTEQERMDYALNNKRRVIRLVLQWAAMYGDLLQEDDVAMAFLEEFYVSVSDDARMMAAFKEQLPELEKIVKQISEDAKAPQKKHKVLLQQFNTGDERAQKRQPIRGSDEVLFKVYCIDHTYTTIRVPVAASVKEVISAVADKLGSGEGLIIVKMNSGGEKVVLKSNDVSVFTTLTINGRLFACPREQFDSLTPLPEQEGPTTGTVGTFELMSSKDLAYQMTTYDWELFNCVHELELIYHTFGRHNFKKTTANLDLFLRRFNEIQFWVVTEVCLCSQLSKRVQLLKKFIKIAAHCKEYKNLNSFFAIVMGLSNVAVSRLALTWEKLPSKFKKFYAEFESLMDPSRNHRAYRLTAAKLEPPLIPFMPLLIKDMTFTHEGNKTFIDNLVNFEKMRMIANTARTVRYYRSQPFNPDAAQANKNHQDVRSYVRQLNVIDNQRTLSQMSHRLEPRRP
Experiment: Epac activation assay, full length Epac2
Assay type: biochemical
Parameters: made in house
Settings: 30 μM compound
Method: Murine Epac2 was used as all previous structural studies were performed with it. The activity of Epac was determined by a fluorescence assay. […] The fluorescence intensity of Rap1B•mGDP is approximately twice that of free mGDP, and thus, nucleotide exchange can be observed as a decay in fluorescence upon the addition of excess unlabeled GDP.
Exercise: state measured kobs for each of the compounds provided.
Mention the unit after the number when you answer.

# input // fetch Epac2^fl (Mus musculus, UniProt Q9EQZ6) kobs for COC1C2OP(=O)(O)OCC2OC1n1c(Sc2ccc(Cl)cc2)nc2c(N)ncnc21 [D-007, 8-pCPT-2′-O-Me-cAMP, reference compound]
# output 7e-05 s⁻¹

# input // fetch Epac2^fl (Mus musculus, UniProt Q9EQZ6) kobs for Cc1ccc(CSc2nc3c(N)ncnc3n2[C@@H]2O[C@@H]3CO[P@](O)(=S)O[C@H]3[C@H]2O)cc1
# output 0.000429 s⁻¹

# input // fetch Epac2^fl (Mus musculus, UniProt Q9EQZ6) kobs for Nc1ncnc2c1ncn2[C@@H]1O[C@@H]2COP(=O)(O)O[C@H]2[C@H]1O [cAMP, reference compound]
# output 0.000142 s⁻¹

# input // fetch Epac2^fl (Mus musculus, UniProt Q9EQZ6) kobs for Nc1ncnc2c1nc(SCc1ccccc1)n2[C@@H]1O[C@@H]2CO[P@](O)(=S)O[C@H]2[C@H]1O
# output 0.00153 s⁻¹
